B1: tRNA (parent)
chain: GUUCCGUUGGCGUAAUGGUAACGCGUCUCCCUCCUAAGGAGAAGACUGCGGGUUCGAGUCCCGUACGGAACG

Variants of: B1
Experiment: yeast fitness relative to wild type (ratio to wild type); higher = fitter; tRNA-Arg(CCU), competitive growth, 37 C, YPD
Fewer inactive variants are shown than the library holds.
# cutoff 0.6 applies to yeast fitness; >= gives class 1, < gives class 0

Solved entries:
C31G U54C C55G U64C
class 0
G23A C27U A37U C60U C61A
class 0
G38C U47G C62U
class 0
U19C A21G U26G
class 1
U2G A57C G68U
class 0

Item G12C U32G C33G with yeast fitness of 0.6 or above?
class 0

Item U26C U32C U47A with yeast fitness of 0.6 or above?
class 0

Item G9C C31G U54A G67C A69U with yeast fitness of 0.6 or above?
class 0

Item A45G C46G U54G A70C with yeast fitness of 0.6 or above?
class 0

Item C22A C29U with yeast fitness of 0.6 or above?
class 1

Item C22G C31G U54A C61G A69C with yeast fitness of 0.6 or above?
class 0

Item A21U G52A G58A with yeast fitness of 0.6 or above?
class 0

Item A57U U59C with yeast fitness of 0.6 or above?
class 0

Item C11U U16C U26C A45C C46U with yeast fitness of 0.6 or above?
class 0
